Reference source for all entries: the NIST ThermoML archive (doi:10.1016/j.fluid.2007.10.004)

cond: 303 K, Capillary rise
Threshold rule: surface tension liquid-gas greater than or equal to 40 mN/m is condition met; below that, condition not met.

Check if surface tension liquid-gas >= 40 mN/m (inclusive). Item: CCCCCCn1cc[n+](C)c1.[I-] [1-hexyl-3-methylimidazolium iodide] condition met

Tell me whether surface tension liquid-gas is at least 40 mN/m here: CCCCn1cc[n+](C)c1.F[P-](F)(F)(F)(F)F [1-butyl-3-methylimidazolium hexafluorophosphate] condition met

Is surface tension liquid-gas for CCCCn1cc[n+](C)c1.F[B-](F)(F)F [1-butyl-3-methylimidazolium tetrafluoroborate] at or above 40 mN/m? condition met

Reported surface tension liquid-gas at or above 40 mN/m? CCCCCCn1cc[n+](C)c1.F[P-](F)(F)(F)(F)F [1-hexyl-3-methylimidazolium hexafluorophosphate] condition met

Decide: is the reported value of surface tension liquid-gas for CCCCCCCC[n+]1ccn(C)c1.F[B-](F)(F)F [1-methyl-3-octylimidazolium tetrafluoroborate] equal to or greater than 40 mN/m? condition not met

Hi, just wondering whether CCCCCCn1cc[n+](C)c1.[Cl-] [1-hexyl-3-methylimidazolium chloride] shows surface tension liquid-gas of 40 mN/m or higher. condition met
